System: A549
experiment: NCI tumour cell line growth inhibition, 48 h
Activity calls are given as the source filed them. Cut-off read from the data, not from the text of the source: active = GI50 up to about 1.1 µM and inactive = higher.
Listing of recorded GI50 by entry.

Worked cases, GI50 given:
| compound | meas value |
| --- | --- |
| CCOC(=O)c1ccc(/N=C2/C(=S)N(c3ccc(C(=O)OCC)cc3)C(=N)N2/N=C/c2ccccc2)cc1 | 30 µM (inactive) |
| COc1cc2ccc3c4cc(OC)c(OC(C)C)cc4cnc3c2cc1OC | > 100 µM (inactive) |
| COC1(OC)CC2C(=O)N(Cc3ccccc3)C1CC2S(=O)(=O)c1ccccc1 (stereo not given) | > 100 µM (inactive) |

Value lookup for GI50; key = `O=C(CC(=O)Nc1ccc(Cl)cc1)NNCC(=O)Nc1nc(-c2ccccc2)cs1` > 100 µM (inactive)

Please report the recorded GI50 for `C(#Cc1ccccc1)SC1=C(c2ccccc2)S/C(=C(\SC#Cc2ccccc2)c2ccccc2)S1` . > 100 µM (inactive)
